# log10 of Kd listing for each entry below
Target: T1, human PVRIG-his (AcroBiosystems, Cat NO. PVG-H52H4) (human, UniProt Q6DKI7 41-171, limits assumed)
T1 construct: also called human PVRIG protein
T1 sequence (looked up): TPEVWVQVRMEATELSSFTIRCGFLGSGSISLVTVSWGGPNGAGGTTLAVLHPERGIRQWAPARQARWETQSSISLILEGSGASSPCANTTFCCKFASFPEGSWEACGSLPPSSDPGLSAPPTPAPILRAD
Test: SPR (BIAcore), antibody captured on Protein A chip, human PVRIG-His analyte
assay-readout: log10 of Kd (log10 of the value in nM)

>  <binder>
PVRIG-A105 (Fc fusion, heavy chain antibody VHH-hinge-CH2-CH3, human IgG1 constant part; not shown: human IgG1 hinge-CH2-CH3) EVQLVESGGGLVQAGGSLRLSCAASGRTFDRHTMTWFRQAPGKEREFVATASRIPGDTYYSHSVKGRFTISRDNAKNTVYLQLNNLKPEDTAVYYCAATSAYCSEVDCYEKGSWYDNWGQGIQVTVSS

>  <result>
-0.17

$$$$
>  <binder>
PVRIG-A50-H1d (Fc fusion, humanized variant of PVRIG-A50; also called A50.VH1d; not shown: constant part not restated for the humanized forms; parents are VHH-hinge-CH2-CH3 of human IgG1; detected by anti-human) EVQLVESGGGLVQPGGSLRLSCAASGFTFSYYDMSWVRQAPGKGLEWVSTINSNGGRTSYVDSVKGRFTISRDNSKNTLYLQMNSLRAEDTAVYYCVEGDPHNFGLESLSLRDFGSWGQGTMVTVSS

>  <result>
-1.26

$$$$
>  <binder>
PVRIG-A105-H5 (Fc fusion, humanized variant of PVRIG-A105; also called A105.VH5; not shown: constant part not restated for the humanized forms; parents are VHH-hinge-CH2-CH3 of human IgG1; detected by anti-human) EVQLVESGGGLVQPGGSLRLSCAASGRTFDRHTMTWFRQAPGKEREFVATASRIPGDTYYVDSVKGRFTISRDNAKNSLYLQMNSLRAEDTAVYYCAATSAYCSEVDCYEKGSWYDNWGQGIQVTVSS

>  <result>
-0.09

$$$$
>  <binder>
PVRIG-A118-H3 (Fc fusion, humanized variant of PVRIG-A118; also called A118.VH3; not shown: constant part not restated for the humanized forms; parents are VHH-hinge-CH2-CH3 of human IgG1; detected by anti-human) EVQLVESGGGLVQPGGSLRLSCAASETYFDLYVMGWYRQAPGKDRELVATITYTGSIKYVDSVKGRFTISRGDAKNSLYLQMNSLRAEDTAVYYCNADPSGLGRKVYWGQGTMVTVSS

>  <result>
0.13

$$$$
>  <binder>
PVRIG-A118-H4 (Fc fusion, humanized variant of PVRIG-A118; also called A118.VH4; not shown: constant part not restated for the humanized forms; parents are VHH-hinge-CH2-CH3 of human IgG1; detected by anti-human) EVQLVESGGGLVQPGGSLRLSCAASETYFDLYVMGWYRQAPGKDRELVATITYTGSIKYVDSVKGRFTISRGDAKNSLSLQMNSLRAEDTAVYYCNADPSGLGRKVYWGQGTMVTVSS

>  <result>
0.08

$$$$
>  <binder>
PVRIG-A118-H7 (Fc fusion, humanized variant of PVRIG-A118; also called A118.VH7; not shown: constant part not restated for the humanized forms; parents are VHH-hinge-CH2-CH3 of human IgG1; detected by anti-human) EVQLVESGGGLVQPGGSLRLSCAASETYFDLYVMGWYRQAPGKDRELVATITYTGSIKYVDSVKGRFTISRGDAKNSLYLQMNSLRAEDTAVYFCNADPSGLGRKVYWGQGTMVTVSS

>  <result>
0.03

$$$$
>  <binder>
PVRIG-A118-H5 (Fc fusion, humanized variant of PVRIG-A118; also called A118.VH5; not shown: constant part not restated for the humanized forms; parents are VHH-hinge-CH2-CH3 of human IgG1; detected by anti-human) EVQLVESGGGLVQPGGSLRLSCAASETYFDLYVMGWYRQAPGKDRELVATITYTGSIKYVDSVKGRFTISRGDAKNSVYLQMNSLRAEDTAVYYCNADPSGLGRKVYWGQGTMVTVSS

>  <result>
0.14

$$$$
>  <binder>
PVRIG-A50-H2a (Fc fusion, humanized variant of PVRIG-A50; also called A50.VH2a; not shown: constant part not restated for the humanized forms; parents are VHH-hinge-CH2-CH3 of human IgG1; detected by anti-human) EVQLVESGGGLVQPGGSLRLSCAASGFTFSYYDMSWVRQAPGKGLEWVSTINSNAGRTSYVDSVKGRFTISRDNTKNTLYLQMNSLRAEDTAVYYCVEGDPHNFGLESLSLRDFGSWGQGTMVTVSS

>  <result>
-1.23

$$$$
>  <binder>
PVRIG-A50-H1 (Fc fusion, humanized variant of PVRIG-A50; also called A50.VH1; not shown: constant part not restated for the humanized forms; parents are VHH-hinge-CH2-CH3 of human IgG1; detected by anti-human) EVQLVESGGGLVQPGGSLRLSCAASGFTFSYYDMSWVRQAPGKGLEWVSTINSNGGRTSYVDSVKGRFTISRDNSKNTLYLQMNSLRAEDTAVYYCVEGDPHNFGLENLSLRDFGSWGQGTMVTVSS

>  <result>
-1.44

$$$$
>  <binder>
PVRIG-A105-H2 (Fc fusion, humanized variant of PVRIG-A105; also called A105 VH2; not shown: constant part not restated for the humanized forms; parents are VHH-hinge-CH2-CH3 of human IgG1; detected by anti-human) EVQLVESGGGLVQPGGSLRLSCAASGRTFDRHTMTWFRQAPGKEREFVATASRIPGDTYYVDSVKGRFTISRDNAKNSLYLQMNSLRAEDTAVYYCAATSAYCSEVDCYEKGSWYDNWGQGTMVTVSS

>  <result>
-0.16

$$$$
>  <binder>
PVRIG-A118-H1 (Fc fusion, humanized variant of PVRIG-A118; also called A118.VH1; not shown: constant part not restated for the humanized forms; parents are VHH-hinge-CH2-CH3 of human IgG1; detected by anti-human) EVQLVESGGGLVQPGGSLRLSCAASETYFDLYVMGWYRQAPGKDRELVATITYTGSIYYVDSVKGRFTISRDNAKNSLYLQMNSLRAEDTAVYYCNADPSGLGRKVYWGQGTMVTVSS

>  <result>
-0.32

$$$$
>  <binder>
PVRIG-A105-H3 (Fc fusion, humanized variant of PVRIG-A105; also called A105.VH3; not shown: constant part not restated for the humanized forms; parents are VHH-hinge-CH2-CH3 of human IgG1; detected by anti-human) EVQLVESGGGLVQPGGSLRLSCAASGRTFDRHTMTWFRQAPGKEREFVATASRIPGDTYYVDSVKGRFTISRDNAKNSVYLQMNSLRAEDTAVYYCAATSAYCSEVDCYEKGSWYDNWGQGTMVTVSS

>  <result>
-0.21

$$$$
>  <binder>
PVRIG-A50-H1b (Fc fusion, humanized variant of PVRIG-A50; also called A50.VH1b; not shown: constant part not restated for the humanized forms; parents are VHH-hinge-CH2-CH3 of human IgG1; detected by anti-human) EVQLVESGGGLVQPGGSLRLSCAASGFTFSYYDMSWVRQAPGKGLEWVSTINSDGGRTSYVDSVKGRFTISRDNSKNTLYLQMNSLRAEDTAVYYCVEGDPHNFGLESLSLRDFGSWGQGTMVTVSS

>  <result>
-1.09

$$$$
>  <binder>
PVRIG-A105-H4 (Fc fusion, humanized variant of PVRIG-A105; also called A105.VH4; not shown: constant part not restated for the humanized forms; parents are VHH-hinge-CH2-CH3 of human IgG1; detected by anti-human) EVQLVESGGGLVQPGGSLRLSCAASGRTFDRHTMTWFRQAPGKEREFVATASRIPGDTYYSHSVKGRFTISRDNAKNSLYLQMNSLRAEDTAVYYCAATSAYCSEVDCYEKGSWYDNWGQGTMVTVSS

>  <result>
-0.10

$$$$
>  <binder>
PVRIG-A50-H1c (Fc fusion, humanized variant of PVRIG-A50; also called A50.VH1c; not shown: constant part not restated for the humanized forms; parents are VHH-hinge-CH2-CH3 of human IgG1; detected by anti-human) EVQLVESGGGLVQPGGSLRLSCAASGFTFSYYDMSWVRQAPGKGLEWVSTINSDGGRTSYVDSVKGRFTISRDNSKNTLYLQMNSLRAEDTAVYYCVEGDPHNFGLENLALRDFGSWGQGTMVTVSS

>  <result>
-1.34

$$$$
